Target: human kisspeptin receptor (Homo sapiens (Human), UniProt Q969F8)
Sequence (Q969F8 whole entry): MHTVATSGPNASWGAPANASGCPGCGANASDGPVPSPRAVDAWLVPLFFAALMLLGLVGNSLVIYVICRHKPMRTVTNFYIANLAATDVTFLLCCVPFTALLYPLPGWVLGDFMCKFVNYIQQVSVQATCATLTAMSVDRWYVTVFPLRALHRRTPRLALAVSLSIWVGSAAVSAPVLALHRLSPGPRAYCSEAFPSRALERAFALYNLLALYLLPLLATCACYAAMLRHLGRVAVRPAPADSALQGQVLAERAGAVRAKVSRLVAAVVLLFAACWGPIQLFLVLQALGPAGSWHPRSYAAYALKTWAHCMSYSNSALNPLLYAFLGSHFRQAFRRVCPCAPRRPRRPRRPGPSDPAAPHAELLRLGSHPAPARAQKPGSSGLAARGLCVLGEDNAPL
Assay: Human KISS1R binding assay (membrane competition binding)
Settings: 90 min at room temperature; competition with 0.2 nM [125I]-metastin (45-54); Flp-In T-Rex 293 kisspeptin membranes; metal complexes nonradioactive Ga, In, Lu; read-out: hKiSSR Binding Ki (90 min)
pKi: −log10 of the molar value. Numbered stars: 1 amine (or outer) side, 2 acyl side, 3 side chain; on linkers, the order of the positions; unused ones are H or OH. Square brackets hold non-standard residues; d marks the D form. Peptide text beside a SMILES is read from it. * marks the point of attachment. DOTA = O=C(O)CN1CCN(CC(=O)O)CCN(CC(=O)*)CCN(CC(=O)O)CC1; Gly(N-(3-F-4-Me-benzyl)) = Cc1ccc(CNCC(=O)*)cc1F; Api(1-amidino) = N=C(N)N1CCC(N)(C(=O)O)CC1; X14 = O=C([C@H]1CC[C@@H](CN[*:1])CC1)[*:2]; Phe(3-F) = N[C@@H](Cc1cccc(F)c1)C(=O)O; d2Nal = N[C@H](Cc1ccc2ccccc2c1)C(=O)O; 4Pal = N[C@@H](Cc1ccncc1)C(=O)O; Api = NC1(C(=O)O)CCNCC1; Ahx = NCCCCCC(=O)O; azaGly = NNC(=O)O; βAla = NCCC(=O)O
Listed next: entries and their corresponding pKi.
attribute.measured: pKi

compound | subject.of.test | experimental.value
Cc1ccc(CNCC(=O)N2CCC(NC(=O)[C@H](CC(C)C)NC(=O)NNC(=O)[C@H](Cc3ccccc3)NC(=O)[C@@H](CC(N)=O)NC(=O)[C@@H](CCC(=O)O)NC(=O)[C@@H](CCCCN)NC(=O)[C@@H](CC(N)=O)NC(=O)[C@@H](CC(N)=O)NC(=O)CCNC(=O)CN3CCN(CC(=O)O)CCN(CC(=O)O)CCN(CC(=O)O)CC3)(C(=O)N[C@@H](Cc3c[nH]c4ccccc34)C(N)=O)CC2)cc1F [Compound 16] ({DOTA-βAla}-[dN][dN][dK][dE][dN]F[azaGly]L[Api](Gly(N-(3-F-4-Me-benzyl)))W-NH2) | human kisspeptin receptor (Homo sapiens (Human), UniProt Q969F8) | < 7.00
Cc1ccc(CNCC(=O)N2CCC(NC(=O)[C@H](CC(C)C)NC(=O)NNC(=O)[C@H](Cc3cccc(F)c3)NC(=O)[C@@H](NC(=O)[C@H](CC(N)=O)NC(=O)[C@H](CCC(=O)O)NC(=O)[C@H]3CC[C@@H](CNC(=O)CN4CCN(CC(=O)O)CCN(CC(=O)O)CCN(CC(=O)O)CC4)CC3)[C@@H](C)O)(C(=O)N[C@@H](Cc3ccncc3)C(N)=O)CC2)cc1F [Compound 170] ({DOTA}-[X14]ENT[Phe(3-F)][azaGly]L[Api](Gly(N-(3-F-4-Me-benzyl)))[4Pal]-NH2) | human kisspeptin receptor (Homo sapiens (Human), UniProt Q969F8) | > 8.00
CC(C)C[C@H](NC(=O)NNC(=O)[C@H](Cc1ccccc1)NC(=O)[C@@H](NC(=O)[C@H](CC(N)=O)NC(=O)[C@@H](Cc1ccc2ccccc2c1)NC(=O)CCCCCNC(=O)CN1CCN(CC(=O)O)CCN(CC(=O)O)CCN(CC(=O)O)CC1)[C@@H](C)O)C(=O)NC1(C(=O)N[C@@H](Cc2ccccc2)C(N)=O)CCN(C(=N)N)CC1 [Compound 301] ({DOTA-Ahx}-[d2Nal]NTF[azaGly]L[Api(1-amidino)]F-NH2) | human kisspeptin receptor (Homo sapiens (Human), UniProt Q969F8) | > 8.00

---

Target: human kisspeptin receptor (Homo sapiens (Human))
Assay: Human KISS1R binding assay (membrane competition binding)
Details: 90 min at room temperature; competition with 0.2 nM [125I]-metastin (45-54); Flp-In T-Rex 293 kisspeptin membranes; metal complexes nonradioactive Ga, In, Lu; read-out: hKiSSR Binding Ki (90 min)
Square brackets hold non-standard residues; d marks the D form. Peptide text beside a SMILES is read from it. * marks the point of attachment. DOTA = O=C(O)CN1CCN(CC(=O)O)CCN(CC(=O)*)CCN(CC(=O)O)CC1; Propanoyl(3-(MeO(CH2CH2O)2)) = COCCOCCOCCC(=O)*; Api(1-amidino) = N=C(N)N1CCC(N)(C(=O)O)CC1; azaGly = NNC(=O)O
The entries below come with measured Ki values attached.

compound | Ki
COCCOCCOCCC(=O)N[C@@H](CCCCNC(=O)CN1CCN(CC(=O)O)CCN(CC(=O)O)CCN(CC(=O)O)CC1)C(=O)N[C@@H](CC(N)=O)C(=O)N[C@H](C(=O)N[C@@H](Cc1ccccc1)C(=O)NNC(=O)N[C@@H](CC(C)C)C(=O)NC1(C(=O)N[C@@H](Cc2c[nH]c3ccccc23)C(N)=O)CCN(C(=N)N)CC1)[C@@H](C)O [Compound 264] ({Propanoyl(3-(MeO(CH2CH2O)2))}-K(DOTA)NTF[azaGly]L[Api(1-amidino)]W-NH2) | < 10 nM
Cc1ccc(CNCC(=O)N2CCC(NC(=O)[C@H](CC(C)C)SC(C)(C)CNC(=O)[C@H](Cc3ccccc3)NC(=O)CCCCCNC(=O)CN3CCN(CC(=O)O)CCN(CC(=O)O)CCN(CC(=O)O)CC3)(C(=O)N[C@@H](Cc3c[nH]c4ccccc34)C(N)=O)CC2)cc1F | 10 to 100 nM

---

Target: human kisspeptin receptor (Homo sapiens (Human))
Test: Human KISS1R binding assay (membrane competition binding)
Details: 90 min at room temperature; competition with 0.2 nM [125I]-metastin (45-54); Flp-In T-Rex 293 kisspeptin membranes; metal complexes nonradioactive Ga, In, Lu; read-out: hKiSSR Binding Ki (90 min)
Numbered stars: 1 amine (or outer) side, 2 acyl side, 3 side chain; on linkers, the order of the positions; unused ones are H or OH. Square brackets hold non-standard residues; d marks the D form. Peptide text beside a SMILES is read from it. * marks the point of attachment. DOTA = O=C(O)CN1CCN(CC(=O)O)CCN(CC(=O)*)CCN(CC(=O)O)CC1; Ala(9-anthryl) = N[C@@H](Cc1c2ccccc2cc2ccccc12)C(=O)O; Gly(N-(3-F-4-Me-benzyl)) = Cc1ccc(CNCC(=O)*)cc1F; Api(1-amidino) = N=C(N)N1CCC(N)(C(=O)O)CC1; Hydrocinnamoyl(4-Me) = Cc1ccc(CCC(=O)*)cc1; Hydrocinnamoyl(4-I) = O=C(CCc1ccc(I)cc1)*; d2Nal = N[C@H](Cc1ccc2ccccc2c1)C(=O)O; X1 = O=C(CN1CCC(N[*:1])CC1)[*:2]; dCya = N[C@H](CS(=O)(=O)O)C(=O)O; 4Pal = N[C@@H](Cc1ccncc1)C(=O)O; Octanoyl = CCCCCCCC(=O)*; Api = NC1(C(=O)O)CCNCC1; PEG2 = NCCOCCOCCC(=O)O; Ahx = NCCCCCC(=O)O; azaGly = NNC(=O)O
Listing: Ki of selected compounds
attribute.measured: Ki

compound | experimental.value
CC(C)C[C@H](NC(=O)NNC(=O)[C@H](Cc1ccccc1)NC(=O)[C@@H](NC(=O)[C@H](CC(N)=O)NC(=O)[C@@H](Cc1ccc2ccccc2c1)NC(=O)[C@@H](Cc1ccc(O)cc1)NC(=O)CCOCCOCCNC(=O)CCc1ccc(I)cc1)[C@@H](C)O)C(=O)NC1(C(=O)N[C@@H](Cc2ccccc2)C(N)=O)CCN(C(=N)N)CC1 [Compound 396] ({Hydrocinnamoyl(4-I)-PEG2}-[dY][d2Nal]NTF[azaGly]L[Api(1-amidino)]F-NH2) | < 10 nM
Cc1ccc(CNCC(=O)N2CCC(NC(=O)[C@H](CC(C)C)NC(=O)NNC(=O)[C@H](Cc3ccccc3)NC(=O)[C@@H](NC(=O)[C@H](CC(N)=O)NC(=O)[C@@H](Cc3ccc4ccccc4c3)NC(=O)[C@@H](Cc3ccc(O)cc3)NC(=O)CCCCCNC(=O)CN3CCN(CC(=O)O)CCN(CC(=O)O)CCN(CC(=O)O)CC3)[C@@H](C)O)(C(=O)N[C@@H](Cc3ccc(O)cc3)C(N)=O)CC2)cc1F [Compound 367] ({DOTA-Ahx}-[dY][d2Nal]NTF[azaGly]L[Api](Gly(N-(3-F-4-Me-benzyl)))Y-NH2) | < 10 nM
Cc1ccc(CNCC(=O)N2CCC(NC(=O)[C@H](CC(C)C)NC(=O)NNC(=O)[C@H](Cc3ccccc3)NC(=O)[C@@H](NC(=O)[C@H](CC(N)=O)NC(=O)CN3CCC(NC(=O)CN4CCN(CC(=O)O)CCN(CC(=O)O)CCN(CC(=O)O)CC4)CC3)[C@@H](C)O)(C(=O)N[C@@H](Cc3ccc(O)cc3)C(N)=O)CC2)cc1F [Compound 249] ({DOTA}-[X1]NTF[azaGly]L[Api](Gly(N-(3-F-4-Me-benzyl)))Y-NH2) | < 10 nM
CC(C)C[C@H](NC(=O)NNC(=O)[C@H](Cc1ccccc1)NC(=O)[C@@H](NC(=O)[C@H](CC(N)=O)NC(=O)[C@H](Cc1c2ccccc2cc2ccccc12)NC(=O)[C@@H](Cc1ccc(O)cc1)NC(=O)CN1CCN(CC(=O)O)CCN(CC(=O)O)CCN(CC(=O)O)CC1)[C@@H](C)O)C(=O)NC1(C(=O)N[C@@H](Cc2ccncc2)C(N)=O)CCN(C(=N)N)CC1 [Compound 221] ({DOTA}-[dY][Ala(9-anthryl)]NTF[azaGly]L[Api(1-amidino)][4Pal]-NH2) | < 10 nM
Cc1ccc(CNCC(=O)N2CCC(NC(=O)[C@H](CC(C)C)NC(=O)NNC(=O)[C@H](Cc3ccccc3)NC(=O)[C@@H](NC(=O)[C@H](CC(N)=O)NC(=O)[C@@H](Cc3c[nH]c4ccccc34)NC(=O)CCCCCNC(=O)CN3CCN(CC(=O)O)CCN(CC(=O)O)CCN(CC(=O)O)CC3)[C@@H](C)O)(C(=O)N[C@@H](Cc3ccncc3)C(N)=O)CC2)cc1F [Compound 290] ({DOTA-Ahx}-[dW]NTF[azaGly]L[Api](Gly(N-(3-F-4-Me-benzyl)))[4Pal]-NH2) | < 10 nM
Cc1ccc(CNCC(=O)N2CCC(NC(=O)[C@H](CC(C)C)NC(=O)NNC(=O)[C@H](Cc3ccccc3)NC(=O)CCCCCNC(=O)[C@@H](CS(=O)(=O)O)NC(=O)CN3CCN(CC(=O)O)CCN(CC(=O)O)CCN(CC(=O)O)CC3)(C(=O)N[C@@H](Cc3c[nH]c4ccccc34)C(N)=O)CC2)cc1F [Compound 116] ({DOTA}-[dCya][Ahx]F[azaGly]L[Api](Gly(N-(3-F-4-Me-benzyl)))W-NH2) | < 10 nM
Cc1ccc(CNCC(=O)N2CCC(NC(=O)[C@H](CC(C)C)NC(=O)NNC(=O)[C@H](Cc3ccccc3)NC(=O)CCCCCNC(=O)CN3CCN(CC(=O)O)CCN(CC(=O)O)CCN(CC(=O)O)CC3)(C(=O)N[C@@H](Cc3c[nH]c4ccccc34)C(N)=O)CC2)cc1F [Compound 2] ({DOTA-Ahx}-F[azaGly]L[Api](Gly(N-(3-F-4-Me-benzyl)))W-NH2) | < 10 nM
Cc1ccc(CNCC(=O)N2CCC(NC(=O)c3cccc(CNC(=O)[C@H](Cc4ccccc4)NC(=O)CCCCCNC(=O)CN4CCN(CC(=O)O)CCN(CC(=O)O)CCN(CC(=O)O)CC4)n3)(C(=O)N[C@@H](Cc3c[nH]c4ccccc34)C(N)=O)CC2)cc1F [Compound 135] | > 100 nM
Cc1ccc(CCC(=O)NCCOCCOCCC(=O)N[C@H](Cc2ccc(O)cc2)C(=O)N[C@@H](CCCCNC(=O)CN2CCN(CC(=O)O)CCN(CC(=O)O)CCN(CC(=O)O)CC2)C(=O)N[C@@H](CC(N)=O)C(=O)N[C@H](C(=O)N[C@@H](Cc2ccccc2)C(=O)NNC(=O)N[C@@H](CC(C)C)C(=O)NC2(C(=O)N[C@@H](Cc3c[nH]c4ccccc34)C(N)=O)CCN(C(=N)N)CC2)[C@@H](C)O)cc1 [Compound 195] ({Hydrocinnamoyl(4-Me)-PEG2}-[dY]K(DOTA)NTF[azaGly]L[Api(1-amidino)]W-NH2) | < 10 nM
CCCCCCCC(=O)N[C@@H](CCCCNC(=O)CN1CCN(CC(=O)O)CCN(CC(=O)O)CCN(CC(=O)O)CC1)C(=O)N[C@@H](CC(N)=O)C(=O)N[C@H](C(=O)N[C@@H](Cc1ccccc1)C(=O)NNC(=O)N[C@@H](CC(C)C)C(=O)NC1(C(=O)N[C@@H](Cc2ccncc2)C(N)=O)CCN(C(=N)N)CC1)[C@@H](C)O [Compound 226] (Octanoyl-K(DOTA)NTF[azaGly]L[Api(1-amidino)][4Pal]-NH2) | 10 to 100 nM

This collection of values is drawn from patent US20250312499A1.
